Origin of values: patent US12258327B2

Target: EGFR del19/C797S (Homo sapiens, UniProt P00533, C797S/DEL746-750)
Sequence (P00533 with tags, fused parts or gaps DEL746-750/C797S): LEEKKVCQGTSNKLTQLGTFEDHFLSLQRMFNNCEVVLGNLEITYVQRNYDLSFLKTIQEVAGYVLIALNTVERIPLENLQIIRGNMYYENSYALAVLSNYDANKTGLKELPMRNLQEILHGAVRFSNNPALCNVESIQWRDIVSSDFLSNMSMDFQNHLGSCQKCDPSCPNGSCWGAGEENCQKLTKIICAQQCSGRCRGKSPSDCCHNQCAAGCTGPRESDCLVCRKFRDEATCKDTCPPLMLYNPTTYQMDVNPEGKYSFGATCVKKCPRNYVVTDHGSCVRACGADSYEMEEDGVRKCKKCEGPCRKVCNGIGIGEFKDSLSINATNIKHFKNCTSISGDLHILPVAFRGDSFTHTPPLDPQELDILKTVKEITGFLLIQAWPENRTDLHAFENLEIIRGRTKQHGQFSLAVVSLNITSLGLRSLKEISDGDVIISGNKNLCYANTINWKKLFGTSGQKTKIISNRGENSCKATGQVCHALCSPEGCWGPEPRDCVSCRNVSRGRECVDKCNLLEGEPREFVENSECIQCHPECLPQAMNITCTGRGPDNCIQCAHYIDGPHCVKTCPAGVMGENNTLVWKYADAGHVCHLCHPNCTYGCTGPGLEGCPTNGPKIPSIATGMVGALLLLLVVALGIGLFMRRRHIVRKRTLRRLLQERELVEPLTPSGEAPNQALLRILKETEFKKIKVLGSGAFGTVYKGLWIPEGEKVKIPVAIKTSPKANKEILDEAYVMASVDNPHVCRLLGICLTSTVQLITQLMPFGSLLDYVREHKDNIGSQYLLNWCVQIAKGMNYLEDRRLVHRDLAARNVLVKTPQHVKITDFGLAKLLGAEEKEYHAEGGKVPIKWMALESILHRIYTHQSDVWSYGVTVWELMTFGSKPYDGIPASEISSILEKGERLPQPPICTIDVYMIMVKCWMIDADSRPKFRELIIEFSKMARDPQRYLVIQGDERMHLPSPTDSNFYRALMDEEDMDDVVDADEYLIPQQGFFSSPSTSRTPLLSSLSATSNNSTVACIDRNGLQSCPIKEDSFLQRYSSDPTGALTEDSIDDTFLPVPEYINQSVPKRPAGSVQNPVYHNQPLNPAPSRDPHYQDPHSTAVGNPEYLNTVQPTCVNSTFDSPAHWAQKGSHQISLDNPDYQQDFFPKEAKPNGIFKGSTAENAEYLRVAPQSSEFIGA
Test: Biochemical EGFR kinase assay (Lance Ultra TR-FRET), double mutant del19/C797S
Details: IC50 del19/C797S (nM) 100 μM ATP, 100 μM ATP
Procedure: Biochemical EGFR kinase assays were conducted using Lance Ultra time-resolved fluorescence resonance energy transfer (TR-FRET) technology from Perkin-Elmer. […] Each kinase reactions were incubated at room temperature for 1 hour and then stopped by the addition of 4 μL of stop solution (10 mM EDTA). […] After 60 minutes incubation at room temperature the LANCE signal was measured on an EnVision Multilabel Reader (Perkin-Elmer). […]
ASSAY_ENDPOINT: IC50
Write your answer as a measured quantity: the number, then the unit.

For record O=S(=O)(C1CC1)n1cc(-c2nccc(Nc3cc(NCC4CCC(NCCF)CC4)c(-c4ccn(C(F)F)n4)cn3)n2)cn1 (stereo not shown) the listed IC50 is 1.1 nM

For record O=S(=O)(C1CC1)n1cc(-c2nccc(Nc3cc(NC[C@H]4CC[C@@H](O)C4)c(-c4ccn(C(F)F)n4)cn3)n2)cn1 the listed IC50 is 0.5 nM

For record CC(C)(O)Cn1cc(-c2nccc(Nc3cc(N[C@H]4CC[C@@](C)(O)CC4)c(-c4ccn(C(F)F)n4)cn3)n2)cn1 the listed IC50 is 114 nM

For record Cn1nc(-c2cnc(Nc3ccnc(-c4cnn(CC(F)(F)F)c4)n3)cc2N[C@H]2CC[C@@](C)(O)CC2)cc1C(F)(F)F the listed IC50 is 37.1 nM

For record CN(C)C[C@H]1CC[C@H](CNc2cc(Nc3ccnc(-c4cnn(S(=O)(=O)C5CC5)c4)n3)ncc2-c2ccn(C(F)F)n2)CC1 the listed IC50 is 0.4 nM

For record CN(C)C[C@H]1CC[C@@H](Nc2cc(Nc3ccnc(-c4cnn(S(=O)(=O)C5CC5)c4)n3)ncc2-c2cc3n(n2)CCCC3)CC1 the listed IC50 is 0.5 nM

For record Cn1nc(-c2cnc(Nc3ccnc(-c4cnn(S(=O)(=O)C5CC5)c4)n3)cc2N[C@H]2CCC[C@H](CO)C2)cc1C(F)(F)F the listed IC50 is 8.7 nM

For record CN(C)CC1CCC(Nc2cc(Nc3ccnc(-c4cnn(S(=O)(=O)C5CC5)c4)n3)ncc2-c2ccn(C3COC3)n2)CC1 (stereo not shown) the listed IC50 is 0.4 nM

For record O=S(=O)(C1CC1)n1cc(-c2nccc(Nc3cc(N[C@H]4CC[C@@H](CO)CC4)c(-c4ccn(CC(F)F)n4)cn3)n2)cn1 the listed IC50 is 0.5 nM

For record C[C@]1(O)CC[C@@H](Nc2cc(Nc3ccnc(-c4cnn(S(=O)(=O)C5CC5)c4)n3)ncc2-c2ccn(C(F)F)n2)CC1 the listed IC50 is 3.2 nM

For record CC(C)(O)c1nc(-c2cnc(Nc3ccnc(-c4cnn(S(=O)(=O)C5CC5)c4)n3)cc2N[C@H]2CCC[C@H](O)C2)cs1 the listed IC50 is 0.8 nM

For record Cc1cc(-c2cnc(Nc3ccnc(-c4cnn(S(=O)(=O)C5CC5)c4)n3)cc2N[C@H]2CC[C@@H](CO)CC2)nn1C the listed IC50 is 0.7 nM

For record CC(C)Nc1cc(Nc2ccnc(-c3cnn(S(=O)(=O)C4CC4)c3)n2)ncc1-c1csc(C(C)(C)O)n1 the listed IC50 is 10 nM
